Molecular target: recombinant human SIRPα-His V2 (human, UniProt P78324 31-370)
Sequence (P78324 other isoform, or with tags, fused parts or gaps): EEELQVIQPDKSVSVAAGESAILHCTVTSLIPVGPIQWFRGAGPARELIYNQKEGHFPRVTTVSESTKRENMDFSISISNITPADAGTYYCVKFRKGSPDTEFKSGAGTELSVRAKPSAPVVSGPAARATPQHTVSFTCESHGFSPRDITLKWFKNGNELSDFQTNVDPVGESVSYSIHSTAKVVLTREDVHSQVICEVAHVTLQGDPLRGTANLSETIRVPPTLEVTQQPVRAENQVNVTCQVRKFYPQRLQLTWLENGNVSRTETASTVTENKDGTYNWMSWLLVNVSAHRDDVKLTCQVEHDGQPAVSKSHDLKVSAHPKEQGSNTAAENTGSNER
Test: Biacore
pKd: −log10 of the molar value.
Measured pKd values are reported for all entries that follow.

{"Binder": "54.58C2.B9.A2 (antibody, V domains shown) VH: EVQLVESGGGLVQPGGSLRLSCAASGFTFSSYDMHWVRQATGKGLEWVSVIGISGDTYYPGSVKGRFTISRENAKNSLYLQMNSLRAGDTAVYYCARGGNWDDAFDIWGQGTMVTVSS VL: DIQMTQSPSSLSASVGDRVTITCRASQDINNYLAWFQQKPGKAPKSLIYTTSSLQSGVPSKFSGSGSGTDFTLTISSLQPEDFATYYCQQYVSYPYTFGQGTKLEIK", "pKd": "> 10.00"}
{"Binder": "54.76D9.B6 (antibody, V domains shown) VH: EVQLVESGGGLVQPGGSLRLSCAASGFTFSSYDMHWVRQATGKGLEWVSVIGISGDTYYPGSVKGRFTISRENAKNSLHLQMNSLRAGDTAVYYCARGGNWDDALDIWGQGTMVTVSS VL: DIQMTQSPSSLSASVGDRVTITCRASQDINNYLAWFQQKPGKAPKSLIYTTSSLQSGVPSKFSGSGSGTDFTLTISSLQPEDFATYYCQQYVSYPYTFGQGTKLEIK", "pKd": "> 10.00"}
{"Binder": "56.16A1.H11 (antibody, V domains shown) VH: EVQLVESGGGLVQPGRSMKLSCAASGFIFTNYDMAWVRQAPTKGLEWVASISYGGSRIYYRDSVKGRFTISRDDAKSTLYLQMDSLRSEDTATYYCTTDYGYNPSYYWYFDFWGPGTMVTVSS VL: DIQMTQTPSSMPASLGERVTISCRASQGISNYLNWYQQKPDGTIKPLIYYTSNLQSGVPSRFSGSGSGTDYSLTISSLEPEDFAMYYCQQYDSSPYTFGAGTKLELKR", "pKd": 9.01}

Ref: patent US20260234283A1
